# target.or.test.system: human LAIR-1-CD3ζ chimeric receptor on NFAT-GFP reporter cells (human, UniProt P20963 31-164, limits assumed)
# Sequence (P20963 other isoform, or with tags, fused parts or gaps mutant limits assumed): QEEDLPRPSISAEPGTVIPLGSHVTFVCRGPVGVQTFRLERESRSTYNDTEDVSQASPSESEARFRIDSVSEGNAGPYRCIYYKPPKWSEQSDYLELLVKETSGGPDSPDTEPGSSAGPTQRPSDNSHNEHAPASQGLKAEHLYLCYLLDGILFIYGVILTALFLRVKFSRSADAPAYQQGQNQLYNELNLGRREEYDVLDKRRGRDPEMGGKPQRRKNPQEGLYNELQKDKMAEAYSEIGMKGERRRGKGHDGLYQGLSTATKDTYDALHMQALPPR
# assay.protocol: cell-based or functional assay
Quick list: IC50 (read off the curve): % GFP+ human LAIR-1 reporter cells on coated collagen 4 per entry.
metric.name: IC50 (read off the curve): % GFP+ human LAIR-1 reporter cells on coated collagen 4

binder: anti-LAIR-1 antibody ch47H1 (antibody, V domains shown, The prefix 'ch' is not defined; detected with anti-human Fc secondary antibody) VH: EVQLVETGGGLVQPKGSLKLSCAASGFTFNINAMNWVRQAPGKGLEWVARIRTKNNNYATFYADSVKDRFTISRDDSQSMLYLQMNNLKTDDTAMYYCVRDRAGFFAYWGQGTPVTVSA VL: DIQMTQSPASQSASLGESVTITCLASQTIGTWLGWYRQKPGKSPQLLIYAATSLADGVPSRFSGSGSGTKFSFKISSLQAEDFVIYYCQQLYSTPLTFGSGTKLEIK
reported.value: ~60 pM
--
binder: anti-LAIR-1 antibody ch47A1 (antibody, V domains shown) VH: EVQLVESGGGLVQPKGSLKLSCAASGFTFNTYAIHWVRQAPGKGLEWVARIRSKSTNYATYYADSVKDRFTISRDDSQSMVFLQMNNLKTEDTAMYYCVRENWYYYALDYWGQGTSVTVSS VL: DIQMTQSPASLSASVGETVTITCRASGNIHNYLTWYQQKQGKSPQVLVYNAKTLEDGVPSRFSGSESGTQYSLKINSLQPEDFGSYYCQHFWSTPFTFGSGTKLEIK
reported.value: ~80 pM
--
binder: anti-LAIR-1 antibody ch57D12 (antibody, V domains shown, The prefix 'ch' is not defined) VH: QVQLQQSGAELARPGASVNLSCRASGYSFTSFGISWVKQRTGQGLEWIGEIYPRSDNTFYNEKFKGKATLTADKSSSTAYMELRSLTSEDSAVYFCARHFGSSSFDYWGQGTTLTVSS VL: ENVLTQSPPIMAASLGQKVTMTCSASSSVSSIYFHWYQQKSGTSPKPLIHRASNLASGVPARFSGSGSGTSYSLTISSVEAEDDATYYCQQWSGYPLTFGGGTKLEIK
reported.value: ~400 pM
--
binder: anti-LAIR-1 antibody ch61H4 (antibody, V domains shown) VH: EVQLQQSGPEVLKPGASVKISCKASGYTFTDYYYMNWVKQSHGKSLEWIGYIYPNNGATSYNQKFKGKATLTVDKSSSTAYMELRSLTSEDSAVYYCARDGYSSNYYTMDYWGQGTSVTVSS VL: DVQMIQSPSSLSASLGDIVTMTCQASQGTSINLNWFQQKPGKAPKLLIYGASNLEDGVPSRFSGSRYGTDFTLTISSLEDEDMATYFCLQHTYLPYTFGGGTKLEIK
reported.value: ~1000 pM
